experiment: in vitro; settings: human, Cytotoxicity [log(EC50 [μM]) ± SEM], cellular necrosis, MDA-MB-231, 72 h exposure, 0.32–320 μM; values are logarithms
Reported EC50 values are given for each entry in this list.

Entry under review: C=C(C[C@H](N)C(=O)O)C(=O)Nc1ccc(Cl)cc1 [Compound 10] . Reported EC50?
> 316 µM

Given the entry CC/C(=C(\c1ccccc1)c1ccc(OCCN(C)C)cc1)c1ccccc1 [Tamoxifen, reference compound] , report its measured EC50.
30.9 µM

Dear colleague, I am looking for the recorded EC50 of the following molecule: C=C(C[C@H](N)C(=O)O)C(=O)Nc1ccc(F)cc1 [Compound 9]
> 316 µM

Item C=C(C[C@H](N)C(=O)O)C(=O)Nc1ccccc1 [Compound 3] has what recorded EC50?
> 316 µM

Look at this molecule and give its reported EC50. C=C(C[C@H](N)C(=O)O)C(=O)NCc1ccccc1 [Compound 4]
> 316 µM

Please look up its EC50: O=C(c1cc(Cc2n[nH]c(=O)c3ccccc23)ccc1F)N1CCN(C(=O)C2CC2)CC1 [Olaparib, reference compound]
97.7 µM

Can you look up the measured EC50 of C=C(C[C@H](N)C(=O)O)C(=O)N1CCCCC1 [Compound 8] for me?
> 316 µM
